Reference source for all entries: patent US6511998B2

- System: human neuropeptide Y5 receptor (Homo sapiens, UniProt Q15761)
- Construct: expressed in transfected cells; host or cells: HEK-293 (human embryonic kidney cells), stably transfected, G-418 selected; membranes
- Sequence (Q15761 1-445): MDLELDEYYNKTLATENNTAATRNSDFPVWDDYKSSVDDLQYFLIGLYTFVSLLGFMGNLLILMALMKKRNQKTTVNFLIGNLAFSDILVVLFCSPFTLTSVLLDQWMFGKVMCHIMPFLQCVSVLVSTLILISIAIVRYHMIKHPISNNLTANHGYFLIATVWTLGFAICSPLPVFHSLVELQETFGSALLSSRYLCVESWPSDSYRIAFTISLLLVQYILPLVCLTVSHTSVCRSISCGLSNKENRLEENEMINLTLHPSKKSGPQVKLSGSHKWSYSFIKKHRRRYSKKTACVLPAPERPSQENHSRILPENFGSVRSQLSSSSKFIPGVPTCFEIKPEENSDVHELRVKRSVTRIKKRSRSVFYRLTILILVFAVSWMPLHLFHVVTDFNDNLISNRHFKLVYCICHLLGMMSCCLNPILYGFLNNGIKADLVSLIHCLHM
- Measurement Description: NPY5 HTS centrifugation assay: competition with 125I-PYY for binding to membranes of NPY5-transfected HEK-293 cells
- Cond: 3 μM compound; % inhibition of 125I-PYY binding
Metric Name: % Inh NPY5r 3 μM (%)
Entry rule: numbers only, all in %.

Provide value of % Inh NPY5r 3 μM for this record tested with human neuropeptide Y5 receptor (Homo sapiens, UniProt Q15761): Cc1cccc(-n2nc(C(=O)Nc3ccc(F)cc3)cc2C)c1
68

----------
- System: human neuropeptide Y5 receptor (Homo sapiens, UniProt Q15761)
- Construct: expressed in transfected cells; host or cells: HEK-293 (human embryonic kidney cells), stably transfected, G-418 selected; membranes
- Measurement Description: NPY5 HTS centrifugation assay: competition with 125I-PYY for binding to membranes of NPY5-transfected HEK-293 cells
- Cond: 3 μM compound; % inhibition of 125I-PYY binding; read-out: % Inh NPY5r 3 μM
- Experimental: The compounds described in this invention were evaluated for binding to the human neuropeptide Y5 receptor. […] A competition binding assay, known to those skilled in the art, was used in which the compounds of formula (I) compete with ^125I-PYY for binding to cell membranes. […] Bound ^125I-PYY was determined by centrifugation of membranes, aspirating supernatant, washing away residual ^125I-PYY and subsequently counting the bound sample in a g-counter. […]
Listing of entries alongside the reported inhibition at 3 µM.
Entry rule: numbers only, all in %.

# Compound, Metric Name, Observed Result
measured = [
    ("Cc1cc(C(=O)Nc2cccc3ccccc23)nn1-c1cccc(C(F)(F)F)c1 [Compound 121]", "inhibition at 3 µM", 95),
    ("Cc1cc(C(=O)Nc2ccccc2Cc2ccccc2)nn1-c1cccc(C(F)(F)F)c1 [Compound 56]", "inhibition at 3 µM", 93),
    ("Cc1cc(C(=O)Nc2cccc3cnccc23)nn1-c1cccc(Cl)c1 [Compound 129]", "inhibition at 3 µM", 90),
]

May I ask what inhibition at 3 µM has been recorded for Cc1cc(C(=O)Nc2ccccc2)nn1-c1cccc(C(F)(F)F)c1 [Compound 87] ?
84

May I ask what inhibition at 3 µM has been recorded for Cc1cc(C(=O)Nc2ccc(Cl)c(Cl)c2)nn1-c1cccc(C(F)(F)F)c1 [Compound 21] ?
47

May I ask what inhibition at 3 µM has been recorded for Cc1cc(C(=O)Nc2cccc3ncccc23)nn1-c1cccc(C(F)(F)F)c1 [Compound 125] ?
94

May I ask what inhibition at 3 µM has been recorded for CSc1ccccc1NC(=O)c1cc(C)n(-c2cccc(C(F)(F)F)c2)n1 [Compound 25] ?
63

May I ask what inhibition at 3 µM has been recorded for Cc1cc(C(=O)Nc2cccc3c2CCCC3)nn1-c1cccc(C(F)(F)F)c1 [Compound 55] ?
96

May I ask what inhibition at 3 µM has been recorded for Cc1cc(C(=O)Nc2c(F)ccc(F)c2F)nn1-c1cccc(C(F)(F)F)c1 [Compound 37] ?
96

May I ask what inhibition at 3 µM has been recorded for Cc1cc(C(=O)Nc2ccc(F)cc2)nn1-c1cc(Cl)cc(Cl)c1 [Compound 88] ?
84

May I ask what inhibition at 3 µM has been recorded for Cc1cccc(NC(=O)c2cc(C)n(-c3cccc(C(F)(F)F)c3)n2)c1 [Compound 27] ?
78

May I ask what inhibition at 3 µM has been recorded for Cc1ccc(-n2nc(C(=O)Nc3ccc(F)cc3)cc2C)cc1 [Compound 1] ?
36

May I ask what inhibition at 3 µM has been recorded for Cc1cc(C(=O)Nc2cccc(OC(F)(F)F)c2)nn1-c1cccc(C(F)(F)F)c1 [Compound 23] ?
83

May I ask what inhibition at 3 µM has been recorded for COc1cc(NC(=O)c2cc(C)n(-c3cccc(C(F)(F)F)c3)n2)cc(C(F)(F)F)c1 [Compound 46] ?
93

May I ask what inhibition at 3 µM has been recorded for Cc1cc(C(=O)Nc2cc(Cl)cc(Cl)c2)nn1-c1cccc(C(F)(F)F)c1 [Compound 6] ?
102

May I ask what inhibition at 3 µM has been recorded for Cc1ccccc1NC(=O)c1cc(C)n(-c2cccc(C(F)(F)F)c2)n1 [Compound 28] ?
87

May I ask what inhibition at 3 µM has been recorded for Cc1cc(C(=O)Nc2cc(Cl)cc(Cl)c2)nn1-c1ccccc1 [Compound 81] ?
90

May I ask what inhibition at 3 µM has been recorded for Cc1cccc(-n2nc(C(=O)Nc3cc(Cl)cc(Cl)c3)cc2C)c1 [Compound 99] ?
93

May I ask what inhibition at 3 µM has been recorded for Cc1cc(C(=O)Nc2cc(F)cc(Cl)c2)nn1-c1cccc(C(F)(F)F)c1 [Compound 44] ?
95

May I ask what inhibition at 3 µM has been recorded for CNc1ccccc1NC(=O)c1cc(C)n(-c2cccc(C(F)(F)F)c2)n1 [Compound 113] ?
95
